- targetEntity: MRP2 (Homo sapiens, UniProt Q92887)
- Sequence (Q92887 whole entry): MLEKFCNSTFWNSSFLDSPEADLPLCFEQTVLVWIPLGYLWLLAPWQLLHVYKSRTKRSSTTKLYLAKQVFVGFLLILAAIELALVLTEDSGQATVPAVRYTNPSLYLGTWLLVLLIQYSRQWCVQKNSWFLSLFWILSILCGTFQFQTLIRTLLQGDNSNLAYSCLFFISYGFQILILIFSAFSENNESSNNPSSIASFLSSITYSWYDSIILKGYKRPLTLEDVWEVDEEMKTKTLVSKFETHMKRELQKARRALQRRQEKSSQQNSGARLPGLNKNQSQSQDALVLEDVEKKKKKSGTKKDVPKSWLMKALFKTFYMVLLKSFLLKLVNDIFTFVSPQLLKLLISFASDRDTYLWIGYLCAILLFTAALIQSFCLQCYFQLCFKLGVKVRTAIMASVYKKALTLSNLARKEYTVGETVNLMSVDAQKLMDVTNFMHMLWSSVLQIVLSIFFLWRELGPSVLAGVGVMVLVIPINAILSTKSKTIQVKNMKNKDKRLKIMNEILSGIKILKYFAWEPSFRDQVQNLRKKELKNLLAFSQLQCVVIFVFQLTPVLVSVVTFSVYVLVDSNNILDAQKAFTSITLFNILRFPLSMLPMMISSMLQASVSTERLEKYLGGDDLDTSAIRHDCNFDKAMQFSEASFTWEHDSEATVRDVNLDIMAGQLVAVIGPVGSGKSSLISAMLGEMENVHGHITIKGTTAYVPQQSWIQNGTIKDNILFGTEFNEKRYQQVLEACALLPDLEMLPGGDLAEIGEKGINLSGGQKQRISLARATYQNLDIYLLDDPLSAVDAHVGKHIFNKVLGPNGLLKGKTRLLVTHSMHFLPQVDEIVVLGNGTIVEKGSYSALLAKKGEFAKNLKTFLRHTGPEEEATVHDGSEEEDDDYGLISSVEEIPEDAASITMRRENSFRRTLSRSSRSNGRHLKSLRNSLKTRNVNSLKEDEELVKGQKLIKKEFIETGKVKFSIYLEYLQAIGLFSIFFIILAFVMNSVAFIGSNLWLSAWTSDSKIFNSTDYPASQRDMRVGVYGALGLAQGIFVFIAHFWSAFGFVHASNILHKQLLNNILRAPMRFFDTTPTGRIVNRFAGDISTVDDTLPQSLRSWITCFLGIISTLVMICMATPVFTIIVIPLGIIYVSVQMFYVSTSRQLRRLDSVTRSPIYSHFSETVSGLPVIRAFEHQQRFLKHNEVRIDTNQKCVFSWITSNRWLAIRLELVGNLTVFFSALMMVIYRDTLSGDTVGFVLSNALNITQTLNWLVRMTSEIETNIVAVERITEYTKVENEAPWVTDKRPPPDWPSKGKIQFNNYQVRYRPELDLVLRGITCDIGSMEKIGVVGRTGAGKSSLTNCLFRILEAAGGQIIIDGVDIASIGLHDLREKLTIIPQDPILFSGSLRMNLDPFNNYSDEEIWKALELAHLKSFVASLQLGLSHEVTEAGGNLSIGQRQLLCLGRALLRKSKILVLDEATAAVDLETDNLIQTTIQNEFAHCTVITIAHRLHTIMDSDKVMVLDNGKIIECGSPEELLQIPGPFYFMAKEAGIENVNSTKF
- experimentNotes: fluorimetric uptake of […]
readoutKind: IC50 (µM)
Enter your answer as a number in µM; do not include the unit.

Prompt line: Give IC50 for the following compound: CN(C)C(=O)CCSC(SCCC(=O)O)c1cccc(/C=C/c2ccc3ccc(Cl)cc3n2)c1 (stereo not shown)
Response line: 22
